Tested on: RSK2(Kin.Dom.1-N-terminal);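 note: KINOMEscan kinase panel screen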
Construct: gene RPS6KA3
condition_notes: concentration: 1 μM, replicates: in singlicate; n = 1
Assign labels as follows, please: YES for %Inh below 20%; NO for %Inh equal to or exceeding 20%.

COc1cccc(CC(=O)N2CCc3cc(-c4cn(C)c5ncnc(N)c45)ccc32)c1: YES

Query: Quick check: %Inh of `CS(=O)(=O)c1cccc(CNc2nc(Nc3ccc4c(c3)CCC(=O)N4)ncc2C(F)(F)F)c1` under 20%?
Result: NO

Query: Quick check: %Inh of `Cc1cc(-c2c(-c3ccc(F)cc3)ncn2CCCN2CCOCC2)nc(N)n1` under 20%?
Result: NO

Query: Quick check: %Inh of `Cl.O=C(Nc1ccc(Oc2ccc3[nH]c(NC(=O)c4ccco4)nc3c2)cc1)Nc1cc(C(F)(F)F)ccc1F` under 20%?
Result: YES

Query: Quick check: %Inh of `Nc1ncc(-c2cn[nH]c2)c2scc(-c3ccc4c(c3)CCN4C(=O)Cc3ccccc3)c12` under 20%?
Result: YES

Query: Quick check: %Inh of `CN(C)c1ncnc2nc[nH]c12` under 20%?
Result: NO

Query: Quick check: %Inh of `O=C1NC(=O)C(c2ccccc2Cl)=C1Nc1cccc(Cl)c1` under 20%?
Result: YES

Query: Quick check: %Inh of `COc1cccc(-c2nc(-c3ccccc3)[nH]c2-c2ccncc2)c1` under 20%?
Result: YES

Query: Quick check: %Inh of CC(C)NCC(Cc1ccccc1)NC(=O)c1cc(Br)c(-c2ccnc3[nH]ccc23)s1.Cl.Cl (stereo not drawn) under 20%?
Result: NO

Recorded values, source paper PMC5540273.
